Values were extracted from PubChem BioAssay (NCI).

System: COLO 205 colon
Test: NCI tumour cell line growth inhibition, 48 h
assay readout: TGI

molecule: CCCCOC(=O)NC(=O)c1cn(C2CCCCC2)c(=O)[nH]c1=O
system name: COLO 205 colon
TGI: > 100 µM

molecule: COc1cc(OC)cc(-c2nc3cc(F)ccc3s2)c1
system name: COLO 205 colon
TGI: > 100 µM

molecule: COC(=O)C1C(=O)C=CN([C@H](C)c2ccccc2)[C@@H]1Cc1ccc(OC)c(OCc2ccccc2)c1I (stereo partly drawn)
system name: COLO 205 colon
TGI: 31.7 µM

molecule: CNC(=O)N1CN(c2ccccc2)C2(CCN(CCCC3(c4ccc(F)cc4)OCCO3)CC2)C1=O
system name: COLO 205 colon
TGI: > 100 µM

molecule: CCCCCCC(=O)C/C(=N/NC(N)=S)C(=O)NC1C2CC3CC(C2)CC1C3 (stereo not drawn)
system name: COLO 205 colon
TGI: > 100 µM

INPUT: Please report the recorded TGI for O=c1c2cc(S(=O)(=O)O)ccc2nc(COc2ccc(Oc3ccc(Cl)cc3Cl)cc2)n1-c1ccc(Cl)cc1Oc1c(Cl)cccc1Cl .
OUTPUT: 32.1 µM

INPUT: Again, but for Cn1cnc([N+](=O)[O-])c1[Se]c1nc(N)nc2c1ncn2C1OC(CO)C(O)C1O (stereo not drawn)
OUTPUT: > 100 µM
